Test: in vivo
Conditions: rat, ip
Description: Toxicity evaluated in rats after intraperitoneal administration.
Each item that follows carries a reported LD50.

| COMPOUND | MEASURED |
| --- | --- |
| O=C(O)/C=C/C(=O)O.OC1CCCc2nc3ccccc3c(NCCCC(c3cccc(F)c3)c3cccc(F)c3)c21 (stereo unspecified) | > 80 mg/kg |
| O=C(O)/C=C/C(=O)O.OC1CCCc2nc3ccccc3c(NCc3c(F)c(F)c(F)c(F)c3F)c21 (stereo unspecified) | > 80 mg/kg |
| Nc1c2c(nc3ccccc13)CCC2O (stereo unspecified) | > 80 mg/kg |
| OC1CCCc2nc3cc(C(F)(F)F)ccc3c(NCc3ccccc3)c21 (stereo unspecified) | > 80 mg/kg |

Requested read-out: LD50. Entry: Nc1c2c(nc3cc(F)ccc13)CCCC2O (stereo unspecified)
40 mg/kg

Try this compound too: COc1cccc(CNc2c3c(nc4ccccc24)CCCC3O)c1 (stereo unspecified)
> 80 mg/kg

Also, Cc1ccc(CNc2c3c(nc4ccccc24)CCCC3O)cc1 (stereo unspecified) please.
> 80 mg/kg

====

Test: Toxicity was evaluated in rats, after intraperitoneal administration;Value ranges from 50-60
Format: organism-based
Conditions: rat, in vivo, ip
QUANTITY MEASURED: LD50

Consider the compound shown here: OC1CCCc2nc3ccccc3c(NCc3ccccc3)c21 (stereo unspecified) [SURONACRINE] What is its recorded LD50?
< 60 mg/kg

====

Organism: Mus musculus
Assay type: functional
Settings: at […]
Description: Reversal of scopolamine-induced memory impairment in mice at 0.31 mg/Kg administered subcutaneously.
QUANTITY MEASURED: Animals (%)
Field: numeric (%). Do not append units.

Example entries and their recorded answers appear below.
| COMPOUND | Animals [%] |
| --- | --- |
| OC1CCCc2nc3ccccc3c(NCc3ccc(F)cc3)c21 (stereo unspecified) | 20 |
| OC1CCCc2nc3ccccc3c(NCc3ccccc3C(F)(F)F)c21 (stereo unspecified) | 23 |
| OC1CCCc2nc3cc(Cl)ccc3c(NCc3ccccc3)c21 (stereo unspecified) | 13 |
| OC1CCCc2nc3ccccc3c(NCCCC(c3ccccc3)c3ccccc3)c21 (stereo unspecified) | 6 |
| COc1ccccc1CNc1c2c(nc3ccccc13)CCCC2O (stereo unspecified) | 7 |

Here's the next entry for you.
So what's the measured Animals for this one? Nc1c2c(nc3cc(Cl)ccc13)CCCC2O (stereo unspecified)
7

====

Assay: Toxicity was evaluated in rats, after intraperitoneal administration;Value ranges from (40-80)
Assay type: organism-based
Details: rat, in vivo, ip
QUANTITY MEASURED: LD50

LD50 for CNc1c2c(nc3ccccc13)CCCC2O (stereo unspecified) ?
< 80 mg/kg

====

Molecular target: Norepinephrine transporter (Rattus norvegicus, UniProt Q9WTR4)
Sequence (Q9WTR4 whole entry): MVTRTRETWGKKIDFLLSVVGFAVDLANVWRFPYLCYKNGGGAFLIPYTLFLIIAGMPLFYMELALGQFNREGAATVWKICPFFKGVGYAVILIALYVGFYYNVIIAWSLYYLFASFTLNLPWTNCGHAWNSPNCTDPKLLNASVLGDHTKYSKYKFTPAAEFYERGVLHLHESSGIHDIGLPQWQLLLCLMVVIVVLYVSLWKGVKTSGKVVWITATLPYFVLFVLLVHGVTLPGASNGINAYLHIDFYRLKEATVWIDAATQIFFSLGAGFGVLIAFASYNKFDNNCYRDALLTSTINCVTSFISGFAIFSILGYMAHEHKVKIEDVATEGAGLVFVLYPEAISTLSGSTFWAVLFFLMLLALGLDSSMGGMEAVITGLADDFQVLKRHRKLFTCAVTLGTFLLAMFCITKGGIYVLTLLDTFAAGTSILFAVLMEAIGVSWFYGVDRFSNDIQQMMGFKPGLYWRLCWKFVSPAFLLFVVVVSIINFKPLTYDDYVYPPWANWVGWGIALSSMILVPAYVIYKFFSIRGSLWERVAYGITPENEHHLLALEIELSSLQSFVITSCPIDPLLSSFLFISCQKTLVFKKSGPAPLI
QUANTITY MEASURED: IC50 (nM)
Use nM as the unit, but write only the number.

| COMPOUND | TARGET ENTITY | MEASURED |
| --- | --- | --- |
| OC1CCCc2nc3ccccc3c(NCc3ccccc3)c21 (configuration not stated) | Norepinephrine transporter (Rattus norvegicus, UniProt Q9WTR4) | 70 |
| OC1CCCc2nc3ccccc3c(NCCc3ccccc3)c21 (configuration not stated) | Norepinephrine transporter (Rattus norvegicus, UniProt Q9WTR4) | 1400 |
| OC1CCCc2nc3ccccc3c(NCc3ccc(F)cc3)c21 (configuration not stated) | Norepinephrine transporter (Rattus norvegicus, UniProt Q9WTR4) | 1800 |
| OC1CCCc2nc3cc(Cl)ccc3c(NCc3ccc(F)cc3)c21 (configuration not stated) | Norepinephrine transporter (Rattus norvegicus, UniProt Q9WTR4) | 2200 |
| O=C(O)/C=C/C(=O)O.OC1CCCc2nc3ccccc3c(NCc3c(F)c(F)c(F)c(F)c3F)c21 (configuration not stated) | Norepinephrine transporter (Rattus norvegicus, UniProt Q9WTR4) | 11000 |
| OC1CCCc2nc3ccccc3c(NCCCC(c3ccccc3)c3ccccc3)c21 (configuration not stated) | Norepinephrine transporter (Rattus norvegicus, UniProt Q9WTR4) | 1500 |
| OC1CCCc2nc3ccccc3c(NCc3ccccc3C(F)(F)F)c21 (configuration not stated) | Norepinephrine transporter (Rattus norvegicus, UniProt Q9WTR4) | 81 |
| OC1CCCc2nc3ccccc3c(NCc3cccc(C(F)(F)F)c3)c21 (configuration not stated) | Norepinephrine transporter (Rattus norvegicus, UniProt Q9WTR4) | 930 |
| Cc1ccc(CNc2c3c(nc4ccccc24)CCCC3O)cc1 (configuration not stated) | Norepinephrine transporter (Rattus norvegicus, UniProt Q9WTR4) | 1100 |
| Cc1cccc(CNc2c3c(nc4ccccc24)CCCC3O)c1 (configuration not stated) | Norepinephrine transporter (Rattus norvegicus, UniProt Q9WTR4) | 220 |

Give the measured IC50 of COc1cccc(CNc2c3c(nc4ccccc24)CCCC3O)c1 (configuration not stated) .
1500

Another compound to look at: OC1CCCc2nc3cc(F)ccc3c(NCc3ccccc3)c21 (configuration not stated)
200

And for COc1ccc(CNc2c3c(nc4ccccc24)CCCC3O)cc1 (configuration not stated) ?
25000

Now the same for OC1CCCc2nc3ccccc3c(NCc3cccc(F)c3)c21 (configuration not stated)
120

What would you report for OC1CCCc2nc3ccccc3c(NCc3ccc(Cl)cc3)c21 (configuration not stated) ?
1100

Try this compound too: OC1CCCc2nc3cc(Cl)ccc3c(NCc3ccccc3)c21 (configuration not stated)
820

Same lookup for O=C(O)/C=C/C(=O)O.OC1CCCc2nc3ccccc3c(NCc3cccs3)c21 (configuration not stated) , please.
290

Same for OC1CCCc2nc3ccccc3c(NCc3ccccc3Cl)c21 (configuration not stated)
43

What do you have for Cc1ccccc1CNc1c2c(nc3ccccc13)CCCC2O (configuration not stated) ?
53

Now try OC1CCCc2nc3ccccc3c(NCc3ccc(C(F)(F)F)cc3)c21 (configuration not stated) .
270

Also OC1CCCc2nc3cc(F)ccc3c(NCc3ccccc3C(F)(F)F)c21 (configuration not stated) ?
540

Query COc1ccccc1CNc1c2c(nc3ccccc13)CCCC2O (configuration not stated) next
4800

// repeat for OC1CCCc2nc3ccccc3c(NCc3ccccc3F)c21 (configuration not stated) and report
110
